- Test system: A375 cells (parental)
- method: Kinase inhibitor library screening, PrestoBlue cell viability, 1 or 10 μM, 72 h
- conditionDescription: A375 Parental, 10μΜ, 72 h
- Experimental: After 72 h of treatment, cell viability was assessed using the PrestoBlue Cell Viability Reagent (ThermoFisher Scientific). Measurements were performed with the CLARIOstar Monochromator microplate reader (BMG Labtech). Kinase inhibitor library screening. […] Drugs were added at 2 different concentrations, 1 and 10 μM, for 72 h and cell viability was assessed using the PrestoBlue Cell Viability assay. […] Each cell line was analyzed at least in duplicate. […]
Assignment: determine reported Cell viability in kinase inhibitor library screening, A375 Parental, 10μΜ for the given molecules.
One number for each entry.

CC[C@@H]1C(=O)N(C)c2cnc(Nc3ccc(C(=O)N[C@H]4CC[C@H](N5CCN(CC6CC6)CC5)CC4)cc3OC)nc2N1C(C)C :: 29.8
CCn1nnc2c(N3CCOCC3)nc(-c3ccc(NC(=O)Nc4ccc(C(=O)N5CCN(C)CC5)cc4)cc3)nc21 :: 12.7
CC(C)n1nc(-c2ccc3oc(N)nc3c2)c2c(N)ncnc21 :: 13.5
CC[C@@H]1C(=O)N(C)c2cnc(Nc3ccc(C(=O)NC4CCN(C)CC4)cc3OC)nc2N1C1CCCC1 :: 30.1
CNC(=O)c1cccc(-c2ccc3c(N4CCOC[C@@H]4C)nc(N4CCOC[C@@H]4C)nc3n2)c1 :: 21.1
Cc1ccc([N+](=O)[O-])cc1S(=O)(=O)N(C)/N=C/c1cnc2ccc(Br)cn12 [PIK-75, reference compound] :: 1.8

Now take the following molecule into account.
[ask] Need Cell viability in kinase inhibitor library screening, A375 Parental, 10μΜ of COc1ccc(Cl)c(Nc2nc3ccccc3nc2NS(=O)(=O)c2cccc(NC(=O)C(C)(C)N)c2)c1 , thanks.
[reply] 88.5
